SYSTEM UNDER TEST: KRAS G12D (Homo sapiens, UniProt P01116, G12D)
Construct: aa1-188 KRAS WT, HRAS WT, NRAS WT, or KRAS containing the G12D
Sequence (P01116 1-188 isoform P01116-2 G12D): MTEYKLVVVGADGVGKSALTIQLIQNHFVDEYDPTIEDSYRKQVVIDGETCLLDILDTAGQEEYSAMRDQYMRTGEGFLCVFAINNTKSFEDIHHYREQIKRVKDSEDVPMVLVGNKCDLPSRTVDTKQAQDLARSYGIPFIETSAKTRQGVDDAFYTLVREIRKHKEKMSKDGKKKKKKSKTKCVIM
PROTOCOL DETAILS: HTRF nucleotide exchange assay, KRAS G12D
RUN CONDITIONS: HTRF nucleotide exchange assay (NEA), class symbols
ATTRIBUTE MEASURED: IC50

>>> assay_result("CCc1c(F)ccc2cc(O)cc(-c3c(C)c4nc(OC[C@]5(C)CCCN5C)nc(N5CCC[C@@](C)(O)C5)c4c4cn(C)nc34)c12")
"≤ 10 nM"
>>> assay_result("CCC1CCCc2cc(O)cc(-c3cc4nc(OC[C@@]56CCCN5C[C@H](F)C6)nc(N5CCCOCC5)c4c4cn(C)nc34)c21 (stereo partly drawn)")
"10 to 100 nM"
>>> assay_result("CCc1c(F)ccc2cc(O)cc(-c3c(F)c4nc(OCC5(CN6CC7CCC(C6)O7)CC5)nc(N5CCOCC(C)(O)C5)c4c4cn(C)nc34)c12 (stereo not drawn)")
"≤ 10 nM"
>>> assay_result("CCc1c(F)ccc2cc(O)cc(-c3cc4nc(OC[C@@]56CCCN5C[C@H](F)C6)nc(N5CCCC(C)(O)C5)c4c4cn(C)nc34)c12 (mixture of isomers)")
"≤ 10 nM"
>>> assay_result("C#Cc1c(F)ccc2cc(O)cc(-c3cc4nc(OC[C@@]56CCCN5C[C@H](F)C6)nc(N5CCCNCC5)c4c4cn(C)nc34)c12 (single isomer, unassigned) [Example 36]")
"≤ 10 nM"
>>> assay_result("CCc1c(F)ccc2cc(O)cc(-c3c(F)c4nc(OC[C@@H]5CCN5C)nc(N5CCC[C@@](C)(O)C5)c4c4cn(C)nc34)c12")
"≤ 10 nM"
>>> assay_result("CCc1c(F)ccc2cc(O)cc(-c3c(F)c4nc(OCC5(CN6CC[C@@H](F)C6)CC5)nc(N5CCOCC(C)(O)C5)c4c4cn(C)nc34)c12 (stereo partly drawn)")
"≤ 10 nM"
>>> assay_result("CCc1c(F)ccc2cc(O)cc(-c3c(F)c4nc(OCC5(C#N)CCOC5)nc(N5CCCNC(=O)C5)c4c4cn(C)nc34)c12 (stereo not drawn)")
"100 to 10000 nM"
>>> assay_result("CCc1c(F)ccc2cc(O)cc(-c3c(F)c4nc(OCC5(CN6CCC(C(F)(F)F)CC6)CC5)nc(N5CCOCC(C)(O)C5)c4c4cn(C)nc34)c12 (stereo not drawn)")
"≤ 10 nM"
>>> assay_result("CCc1c(F)ccc2cc(O)cc(-c3c(C)c4nc(OCC5(C)CC(O)CN5)nc(N5CCOCC(C)(O)C5)c4c4cn(C)nc34)c12 (stereo not drawn)")
"≤ 10 nM"
>>> assay_result("C=Cc1c(F)ccc2cc(O)cc(-c3c(C)c4nc(OC[C@@]56CCCN5C[C@H](F)C6)nc(N5CCCn6nc(C(=O)N(C)C)cc6C5)c4c4cn(C)nc34)c12")
"≤ 10 nM"
>>> assay_result("CCc1c(F)ccc2cc(O)cc(-c3cc4nc(OC[C@@]56CCCN5C[C@H](F)C6)nc(N5CCOC[C@](C)(O)C5)c4c4cn(C)nc34)c12")
"10 to 100 nM"
